Biological target: rat PTP1 (Rattus norvegicus, UniProt P20417)
Construct: a C-terminal truncation of rat PTP1 (amino acid residues 1-322); GST (N, cleaved yes); made in house; host or cells: E. coli strain TG-1 (pGEX-2T)
Sequence (P20417 1-322): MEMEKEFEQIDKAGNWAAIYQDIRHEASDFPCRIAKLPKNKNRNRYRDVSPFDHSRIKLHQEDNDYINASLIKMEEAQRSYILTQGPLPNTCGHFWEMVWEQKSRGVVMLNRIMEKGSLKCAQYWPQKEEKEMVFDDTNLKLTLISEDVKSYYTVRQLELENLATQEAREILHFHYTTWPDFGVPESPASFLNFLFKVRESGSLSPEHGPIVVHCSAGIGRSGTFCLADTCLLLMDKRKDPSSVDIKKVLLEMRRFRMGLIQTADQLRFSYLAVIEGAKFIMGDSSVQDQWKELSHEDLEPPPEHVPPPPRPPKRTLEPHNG
Test: PTP1 assay, pNPP hydrolysis (rate of change in A405)
Format: biochemical
Conditions: Conc 1 uM; pNPP hydrolysis; Table 2; read-out: PTP1 Inhib PTP1N. % Inhib
RECORDED_ENDPOINT: inhibition at 1 µM (%)

# count of solved cases: 8
MOLECULE: CCCCCNC(=O)C(Cc1ccc(OC(COO)COO)cc1)NC(=O)C(Cc1ccc(OC(C)(C)C)cc1)NC(=O)OC(C)(C)C (centres unmarked)
TARGET: rat PTP1 (Rattus norvegicus, UniProt P20417)
MEASUREMENT: 5

MOLECULE: CCCCCNC(=O)C(Cc1ccc(OC(COO)C(=O)O)cc1)NC(=O)NC(Cc1ccccc1)C(=O)O (centres unmarked)
TARGET: rat PTP1 (Rattus norvegicus, UniProt P20417)
MEASUREMENT: 8

MOLECULE: CCCCC/C=C/[C@H](Cc1ccc(OC(C(=O)O)C(=O)O)cc1)NC(=O)CCC(=O)O
TARGET: rat PTP1 (Rattus norvegicus, UniProt P20417)
MEASUREMENT: 1

MOLECULE: CCCCCNC(=O)C(Cc1ccc(OC(COO)COO)cc1)NC(=O)C(Cc1ccc(C(=O)c2ccccc2)cc1)NC(=O)CCC(=O)O (centres unmarked) [drawing 139]
TARGET: rat PTP1 (Rattus norvegicus, UniProt P20417)
MEASUREMENT: 4

MOLECULE: CCCCCNC(=O)C(Cc1ccc(OC(COO)COO)cc1)NC(=O)C(C)NC(=O)OC(C)(C)C (centres unmarked)
TARGET: rat PTP1 (Rattus norvegicus, UniProt P20417)
MEASUREMENT: 0

MOLECULE: CCCCCNC(=O)C(Cc1ccc(OC(COO)COO)cc1)NC(=O)C(Cc1ccc(OCc2c(Cl)cccc2Cl)cc1)NC(=O)CCC(=O)O (centres unmarked)
TARGET: rat PTP1 (Rattus norvegicus, UniProt P20417)
MEASUREMENT: 11

MOLECULE: CCCCCNC(=O)C(Cc1ccc(OC(COO)COO)cc1)NC(=O)C(Cc1ccc(OCc2c(Cl)cccc2Cl)cc1)NC(=O)OC(C)(C)C (centres unmarked)
TARGET: rat PTP1 (Rattus norvegicus, UniProt P20417)
MEASUREMENT: 3

MOLECULE: CCCCCNC(=O)C(Cc1ccc(OCCOO)c(COO)c1)NC(=O)C(Cc1ccccc1)NC(=O)OC(C)(C)C (centres unmarked) [drawing 162]
TARGET: rat PTP1 (Rattus norvegicus, UniProt P20417)
MEASUREMENT: 40

P. CCCCCNC(=O)C(Cc1ccc(OC(COO)COO)cc1)NC(=O)C(Cc1ccc(OCc2ccccc2)cc1)N(C)C(=O)OC(C)(C)C (centres unmarked)
Q. CCCCCNC(=O)C(Cc1ccc(OC(COO)COO)cc1)NC(=O)C(Cc1ccc(OC)cc1)NC(=O)CCC(=O)O (centres unmarked)
Recorded inhibition at 1 µM values differ for P and Q ; which one is higher? Write down the label of the entry you select.
Q
(Q: 32%, P: 0%)

A. CCCCCNC(=O)C(Cc1ccc(OC(COO)COO)cc1)NC(=O)C(Cc1ccc(C(=O)c2ccccc2)cc1)NC(=O)OC(C)(C)C (centres unmarked)
B. CCCCCNC(=O)C(Cc1ccc(OC(COO)COO)cc1)NC(=O)C(Cc1ccc(OCc2ccccc2)cc1)NC(=O)CCC(=O)O (centres unmarked)
C. CCCCCNC(=O)C(C)(Cc1ccc(OC(C(=O)O)C(=O)O)cc1)NC(=O)CCC(=O)O (centres unmarked)
Let's sort these by inhibition at 1 µM, smallest first. Go ahead? Quick reminder: the answer is the labels in the order asked.
C, A, B
